Values were extracted from paper PMC9380819.

# target_entity: SARS-CoV-2 spike RBD (331–528 amino acids) (Severe acute respiratory syndrome coronavirus 2, UniProt P0DTC2)
# experiment_summary: biochemical
# Assay type: binding
observed_property: pKd
pKd here: minus log base 10 of the concentration, concentration in moles per litre.

Retrieve pKd measured for CC(C)(C)NCC(O)COc1cccc2c1CCC(=O)N2 (stereo not drawn) [carteolol] and print it.
6.34

Retrieve pKd measured for CC(C)NCC(O)COc1cccc2[nH]ccc12 (stereo not drawn) [pindolol, Pindolol] and print it.
6.24

Retrieve pKd measured for COc1ccccc1OCCNCC(O)COc1cccc2[nH]c3ccccc3c12 (stereo not drawn) [carvedilol] and print it.
6.44
